# Test system: SK-MEL-28
# assay: Cytotoxicity against human SK-MEL-28 cells after 72 hrs by MTT assay
# Type: functional, cell-based
# assay_setup: SK-MEL-28, 72 h
parameter: pIC50
Scale: pIC50 equals -log10([C]), with [C] in mol/L.

Answered cases to consult:
compound: CC(C)=CCC/C(C)=C/COc1ccc2ccc(=O)oc2c1
test_system: SK-MEL-28
pIC50: 4.06

compound: O=C(/C=C/c1ccccc1)c1ccc(O)cc1O [2',4'-DIHYDROXYCHALCONE]
test_system: SK-MEL-28
pIC50: 4.12

compound: CC(=O)c1c(O)cc(OC/C=C(\C)CCC=C(C)C)cc1O
test_system: SK-MEL-28
pIC50: 4.40

Please examine the following record next.
Item: O=C(/C=C/c1ccc(O)cc1)c1ccc(O)cc1O | pIC50: 4.12

====

Readings of pIC50 for the listed compounds
# Test system: LoVo
# assay: Cytotoxicity against human LoVo cells after 72 hrs by MTT assay
# Assay type: functional, cell-based
pIC50 here: minus log base 10 of the concentration, concentration in moles per litre.

Examples with answers:
smiles_string: COc1cc(C(=O)O)ccc1O
test_system: LoVo
observed: 4.04
//
smiles_string: CC(C)=CCOc1cc(O)c2c(c1)C(=O)c1cc(C)cc(O)c1C2=O
test_system: LoVo
observed: 5.10

Next up:
Recorded pIC50 for COc1cc(/C=C/C=O)ccc1O on LoVo was 4.64

====

As shown below, each of these compounds has a reported IC50 value.
# Test system: LoVo
# assay: Cytotoxicity against human LoVo cells after 72 hrs by MTT assay
# Format: functional, cell-based
The reply should contain only the number, in µM.

Note to self: IC50 recorded for COc1cc(/C=C/CO)cc(OC)c1OC/C=C(\C)CCC=C(C)C was 38

CC(C)=CCC/C(C)=C/CC/C(C)=C/COc1ccc2ccc(=O)oc2c1 yielded IC50 of 50

Data point: CC(C)=CCOc1ccc(C(=O)/C=C/c2ccccc2)c(O)c1 ; IC50 = 58

Per the record, O=C(/C=C/c1ccccc1)c1ccc(O)cc1O [2',4'-DIHYDROXYCHALCONE] has IC50 of 81

Data point: CC(=O)c1c(O)cc(OC/C=C(\C)CCC=C(C)C)cc1O ; IC50 = 35

Just so you know, measured IC50 for COc1cc(/C=C/CO)ccc1O came out at 64

Lab note: COc1c(OCC=C(C)C)ccc2ccc(=O)oc12 gave IC50 of 40

Consider O=C(/C=C/c1ccc(O)cc1)c1ccc(O)cc1O . Its measured IC50 is 57

====

Catalogue of compounds with associated pIC50
# Tested on: A549
# assay: Cytotoxicity against human A549 cells after 72 hrs by MTT assay
# Assay type: functional, cell-based
# assay_setup: A549, 72 h
Reminder that pIC50 is minus the log10 of a molar concentration.

# annotated cases, reported pIC50 shown
smiles_string: CC(=O)c1c(O)cc(OC/C=C(\C)CC/C=C(\C)CCC=C(C)C)cc1O
test_system: A549
pIC50: 4.59
--
smiles_string: COc1cc(/C=C/CO)ccc1O
test_system: A549
pIC50: 4.07
--
smiles_string: CC(=O)c1ccc(OC/C=C(\C)CCC=C(C)C)cc1O
test_system: A549
pIC50: 4.29
--
smiles_string: CC(C)=CCC/C(C)=C/COc1cc(O)c2c(c1)C(=O)c1cc(C)cc(O)c1C2=O
test_system: A549
pIC50: 4.49
--
smiles_string: CC(C)=CCOc1ccc(C(=O)/C=C/c2ccccc2)c(O)c1
test_system: A549
pIC50: 4.27

Lab note: measured pIC50 of Cc1cc(O)c2c(c1)C(=O)c1cc(O)cc(O)c1C2=O was 4.55

# compound CC(=O)c1c(O)cc(OC/C=C(\C)CCC=C(C)C)cc1O ; its pIC50 = 4.47

Summary for this compound, COc1cc(/C=C/CO)cc(OC)c1OC/C=C(\C)CCC=C(C)C : pIC50 is 4.12

Kindly note the recorded pIC50 for O=C(/C=C/c1ccc(O)cc1)c1ccc(O)cc1O , which is 4.07

====

# assay: Cytotoxicity against human U373 cells after 72 hrs by MTT assay
# Type: functional, cell-based, U-373MG ATCC
# assay_setup: U373 MG
Could you please mark fulfilled for values of IC50 below 30 µM and not fulfilled for values at or above it?

Examples from the recorded data:
compound: COc1cc(C(=O)O)ccc1OCC=C(C)C
class: not fulfilled
--
compound: COc1cc(/C=C/CO)ccc1O [CONIFERYL ALCOHOL]
class: not fulfilled
--
compound: O=C(O)/C=C/c1ccc(O)cc1 [COUMARIC ACID]
class: not fulfilled
--
compound: COc1cc(/C=C/C=O)cc(OC)c1OC/C=C(\C)CCC=C(C)C [NELUMAL A]
class: fulfilled
--
compound: Cc1cc(O)c2c(c1)C(=O)c1cc(O)cc(O)c1C2=O [EMODIN]
class: not fulfilled

Problem: A record lists COc1cc(C(=O)O)ccc1O [VANILLIC ACID] . Is its IC50 below 30 µM?
Solution: not fulfilled

Problem: Lab note: confirm whether the reported IC50 for this compound is below 30 µM, equality not counting. compound: CC(C)=CCOc1ccc2ccc(=O)oc2c1 [7-PRENYLOXYCOUMARIN]
Solution: not fulfilled

Problem: IC50 under 30 µM? Item: O=c1ccc2ccc(O)cc2o1 [UMBELLIFERONE]
Solution: not fulfilled

====

# Tested on: LoVo
# assay: Cytotoxicity against human LoVo cells after 72 hrs by MTT assay
# Assay type: functional, cell-based
parameter: IC50

smiles_string: COc1cc(/C=C/C(=O)O)ccc1OC/C=C(\C)CCC=C(C)C
IC50: > 100 µM

Measured on LoVo, COc1cc(C(=O)O)ccc1OCC=C(C)C has a documented IC50 of > 100 µM

# IC50 measured on LoVo for item CC(C)=CCC/C(C)=C/COc1ccc(/C=C/C(=O)O)cc1 = > 100 µM

====

# assay: Cytotoxicity against human U373 cells after 72 hrs by MTT assay
# Format: functional, cell-based, U-373MG ATCC
# assay_setup: U373 MG
pIC50: −log10 of the molar value.
Kindly return YES if reported pIC50 is no lower than 5; return NO if it is lower.

Some solved entries appear below for comparison.
compound: COc1cc(/C=C/C=O)cc(OC)c1OCC=C(C)C
class: NO

compound: COc1cc(/C=C/C(=O)O)ccc1OC/C=C(\C)CCC=C(C)C
class: NO

compound: CC(C)=CCOc1ccc(C(=O)/C=C/c2ccccc2)c(O)c1
class: NO

compound: O=C(/C=C/c1ccc(O)cc1)c1ccc(O)cc1O
class: NO

compound: CC(C)=CCC/C(C)=C/COc1cc(O)c2c(c1)C(=O)c1cc(C)cc(O)c1C2=O
class: NO

Problem: # bool: pIC50 of CC(C)=CCOc1cc(O)c2c(c1)C(=O)c1cc(C)cc(O)c1C2=O >= 5
Solution: YES

Problem: State whether the measured pIC50 reaches 5, counting equality as reaching it, for O=C(/C=C/c1ccccc1)c1ccc(O)cc1O [2',4'-DIHYDROXYCHALCONE]
Solution: NO

Problem: Is the recorded value of pIC50 equal to or greater than 5 for this compound? CC(C)=CCOc1ccc2ccc(=O)oc2c1O
Solution: NO

Problem: Would you say COc1cc(/C=C/C=O)ccc1OC/C=C(\C)CCC=C(C)C shows pIC50 at minimum 5?
Solution: YES

Problem: Can CC(=O)c1ccc(O)cc1O be said to have pIC50 at or above 5?
Solution: NO

Problem: Test whether the compound CC(C)=CCOc1ccc(C(=O)O)cc1 records pIC50 of 5 or higher.
Solution: NO

Problem: Could you verify whether the entry COc1cc(/C=C/C(=O)O)ccc1OCC=C(C)C shows pIC50 of no less than 5?
Solution: NO
